Every entry's value here was drawn from paper PMC4240464.

# TESTED ON: T1, 6His–Evasin-4 (Rhipicephalus sanguineus, UniProt P0C8E9 24-127)
# T1 sequence: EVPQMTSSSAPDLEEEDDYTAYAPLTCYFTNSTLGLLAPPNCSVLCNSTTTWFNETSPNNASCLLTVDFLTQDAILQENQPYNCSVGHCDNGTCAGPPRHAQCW
# PROTOCOL SUMMARY: SPR
PROPERTY NAME: kon (M⁻¹ s⁻¹)
Numbers only; they are read as M⁻¹ s⁻¹.

Inquiry: Complete the entry with kon for CCL22 (ligand) GPYGANMEDSVCCRDYVRYRLPLRVVKHFYWTSDSCPRPGVVLLTFRDKEICADPRVPWVKMILNKLSQ
Reply text: 8.9e+06

Inquiry: Complete the entry with kon for CCL15 (ligand) QFTNDAETELMMSKLPLENPVVLNSFHFAADCCTSYISQSIPCSLMKSYFETSSECSKPGVIFLTKKGRQVCAKPSGPGVQDCMKKLKPYSI
Reply text: 4.05e+07

Inquiry: Complete the entry with kon for CCL5 E26A (ligand) SPYSSDTTPCCFAYIARPLPRAHIKAYFYTSGKCSNPAVVFVTRKNRQVCANPEKKWVREYINSLEMS
Reply text: 2.6e+07
